Tested on: HEK-293T
Test Description: Multiplex assay against HEK293T
Type: toxicity, cell-based
Settings: human, 24 h, 10 µM, compound concentration 10 uM, replicate 1
We begin with a simple list: items and their reported Population Healthy Nuclei (%).
Measured Parameter: Population Healthy Nuclei (%)

>  <Compound>
CC(C)(C)c1ccc(S(=O)(=O)Nc2ccc(Cl)cc2C(=O)c2cc[n+]([O-])cc2)cc1

>  <Test Target>
HEK-293T

>  <Measured Parameter>
Population Healthy Nuclei (%)

>  <Readout Number>
77

$$$$
>  <Compound>
N[C@@]1(C(=O)O)CO[C@H]2[C@H](C(=O)O)[C@H]21

>  <Test Target>
HEK-293T

>  <Measured Parameter>
Population Healthy Nuclei (%)

>  <Readout Number>
79

$$$$
>  <Compound>
C[C@H]1[C@H]2CC[C@H]3[C@@H]4CC=C5C[C@@H](N(C)C)CC[C@]5(C)[C@H]4CC[C@]23CN1C

>  <Test Target>
HEK-293T

>  <Measured Parameter>
Population Healthy Nuclei (%)

>  <Readout Number>
79

$$$$
>  <Compound>
C[C@H](NC(=O)c1c(C(F)F)nn(C)c1Oc1cccc(C(F)(F)F)c1)c1ccc(C(=O)O)cc1

>  <Test Target>
HEK-293T

>  <Measured Parameter>
Population Healthy Nuclei (%)

>  <Readout Number>
74

$$$$
>  <Compound>
COc1c(C)cc(NC(=O)c2nn(Cc3ccc(F)cc3)c3c2CN(C(=O)c2ccc[nH]2)C[C@]3(C)C(N)=O)cc1C

>  <Test Target>
HEK-293T

>  <Measured Parameter>
Population Healthy Nuclei (%)

>  <Readout Number>
73

$$$$
>  <Compound>
Cc1ccc(/C(=C\CN2CCCC2)c2ccccn2)cc1

>  <Test Target>
HEK-293T

>  <Measured Parameter>
Population Healthy Nuclei (%)

>  <Readout Number>
78

$$$$
>  <Compound>
c1cc(OCCCN2CCCCC2)ccc1CN1CCCCC1

>  <Test Target>
HEK-293T

>  <Measured Parameter>
Population Healthy Nuclei (%)

>  <Readout Number>
77

$$$$
>  <Compound>
CCOc1c2c(c(OCC)c3ncccc13)CN(c1ccc(CS(=O)(=O)NC(=O)Cc3ccccc3OC)cc1C)C2=O

>  <Test Target>
HEK-293T

>  <Measured Parameter>
Population Healthy Nuclei (%)

>  <Readout Number>
75

$$$$
>  <Compound>
CSc1ccccc1N1CCN(CCCCCC(=O)NC2CCCc3ccccc32)CC1.Cl (stereo not drawn)

>  <Test Target>
HEK-293T

>  <Measured Parameter>
Population Healthy Nuclei (%)

>  <Readout Number>
70

$$$$
>  <Compound>
COc1ccc2c(c1)C(C(=O)N(Cc1ccc(N(C)C)cc1)c1ccc(C(C)C)cc1)CCC2.Cl (stereo not drawn)

>  <Test Target>
HEK-293T

>  <Measured Parameter>
Population Healthy Nuclei (%)

>  <Readout Number>
73

$$$$
>  <Compound>
Cc1nc2ccc(Oc3ccc(F)cc3)cc2c(=O)n1C[C@H]1CCCN(C(C)C)C1.Cl

>  <Test Target>
HEK-293T

>  <Measured Parameter>
Population Healthy Nuclei (%)

>  <Readout Number>
73

$$$$
>  <Compound>
O=C(NCC(=O)N1CC[C@H](N[C@H]2CC[C@@](O)(c3ccc(-c4ncccn4)cn3)CC2)C1)c1cccc(C(F)(F)F)c1

>  <Test Target>
HEK-293T

>  <Measured Parameter>
Population Healthy Nuclei (%)

>  <Readout Number>
73

$$$$
>  <Compound>
CN(C)CCCc1cc(C(=O)Nc2ccc(-c3ccncc3)cc2)ccc1O.Cl.Cl

>  <Test Target>
HEK-293T

>  <Measured Parameter>
Population Healthy Nuclei (%)

>  <Readout Number>
77

$$$$
>  <Compound>
O=S(=O)(c1ccccc1)c1cnc2c(N3CCNCC3)cccc2c1 [INTEPIRDINE]

>  <Test Target>
HEK-293T

>  <Measured Parameter>
Population Healthy Nuclei (%)

>  <Readout Number>
75

$$$$
>  <Compound>
COc1cc(C(=O)N(CCCc2ccccc2)Cc2ccc(CC(=O)O)cc2)cc(OC)c1C

>  <Test Target>
HEK-293T

>  <Measured Parameter>
Population Healthy Nuclei (%)

>  <Readout Number>
80

$$$$
>  <Compound>
Cc1ccc(-c2ccc(F)cc2COc2ccc(CCC(=O)O)cc2)cc1

>  <Test Target>
HEK-293T

>  <Measured Parameter>
Population Healthy Nuclei (%)

>  <Readout Number>
76

$$$$
>  <Compound>
N#Cc1c(N)nc(SCc2csc(-c3ccc(Cl)cc3)n2)c(C#N)c1-c1ccc(OCCO)cc1

>  <Test Target>
HEK-293T

>  <Measured Parameter>
Population Healthy Nuclei (%)

>  <Readout Number>
68

$$$$
>  <Compound>
CN(C)c1ccnc2sc3c(=O)n(N4CCCCCC4)cnc3c12

>  <Test Target>
HEK-293T

>  <Measured Parameter>
Population Healthy Nuclei (%)

>  <Readout Number>
76

$$$$

====

System: Fibroblast
Test Description: Multiplex assay against human fibroblast
Assay type: toxicity, cell-based
Settings: 48 h, 10 µM, compound concentration 10 uM, replicate 2
molecules and their reported Population Mitotic Cells (%)
Measured Parameter: Population Mitotic Cells (%)

>  <Molecule>
N[C@@]1(C(=O)O)CO[C@H]2[C@H](C(=O)O)[C@H]21

>  <Measured Parameter>
Population Mitotic Cells (%)

>  <Measurement Units>
%

>  <Readout Number>
57

$$$$
>  <Molecule>
C[C@@H]1C[C@H]2[C@@H]3CCC4=CC(=O)C=C[C@]4(C)[C@@]3(F)[C@@H](O)C[C@]2(C)[C@@]1(O)C(=O)CO

>  <Measured Parameter>
Population Mitotic Cells (%)

>  <Measurement Units>
%

>  <Readout Number>
62

$$$$
>  <Molecule>
Oc1c(CN2CCN(c3ccccn3)CC2)cc(Cl)c2cccnc12

>  <Measured Parameter>
Population Mitotic Cells (%)

>  <Measurement Units>
%

>  <Readout Number>
21

$$$$
>  <Molecule>
CNC[C@H](O)c1ccc(O)c(O)c1 [EPINEPHRINE]

>  <Measured Parameter>
Population Mitotic Cells (%)

>  <Measurement Units>
%

>  <Readout Number>
62

$$$$
>  <Molecule>
COc1cc(C(=O)N(CCCc2ccccc2)Cc2ccc(CC(=O)O)cc2)cc(OC)c1C

>  <Measured Parameter>
Population Mitotic Cells (%)

>  <Measurement Units>
%

>  <Readout Number>
41

$$$$
>  <Molecule>
O=C1COc2nccc(-c3ccccc3F)c2CN1Cc1cc(C(F)(F)F)cc(C(F)(F)F)c1

>  <Measured Parameter>
Population Mitotic Cells (%)

>  <Measurement Units>
%

>  <Readout Number>
40

$$$$
>  <Molecule>
CCCN1CCC[C@@H]2Cc3n[nH]cc3C[C@H]21.Cl [QUINPIROLE HYDROCHLORIDE]

>  <Measured Parameter>
Population Mitotic Cells (%)

>  <Measurement Units>
%

>  <Readout Number>
53

$$$$
>  <Molecule>
Cc1ccc(F)cc1C(=O)Nc1ccc(C(=O)N2Cc3cccn3Cc3ccccc32)c(Cl)c1

>  <Measured Parameter>
Population Mitotic Cells (%)

>  <Measurement Units>
%

>  <Readout Number>
26

$$$$
>  <Molecule>
c1cc(OCCCN2CCCCC2)ccc1CN1CCCCC1

>  <Measured Parameter>
Population Mitotic Cells (%)

>  <Measurement Units>
%

>  <Readout Number>
69

$$$$
>  <Molecule>
COc1cc(NC(=O)CCN2CCC(OC(=O)Nc3ccccc3-c3ccccc3)CC2)c(Cl)cc1CNC[C@H](O)c1ccc(O)c2[nH]c(=O)ccc12

>  <Measured Parameter>
Population Mitotic Cells (%)

>  <Measurement Units>
%

>  <Readout Number>
11

$$$$
>  <Molecule>
CCCn1c(=O)c2[nH]c(C3CCCC3)nc2n(CCC)c1=O

>  <Measured Parameter>
Population Mitotic Cells (%)

>  <Measurement Units>
%

>  <Readout Number>
50

$$$$
>  <Molecule>
CSc1ccccc1N1CCN(CCCCCC(=O)NC2CCCc3ccccc32)CC1.Cl (stereo not drawn)

>  <Measured Parameter>
Population Mitotic Cells (%)

>  <Measurement Units>
%

>  <Readout Number>
31

$$$$
>  <Molecule>
Cc1ccc(C(C)(O)c2nc3ccccc3s2)c(C)c1 (stereo not drawn)

>  <Measured Parameter>
Population Mitotic Cells (%)

>  <Measurement Units>
%

>  <Readout Number>
56

$$$$
>  <Molecule>
CCNC1(C(N)=O)CCN(c2ncnc3c2nc(-c2ccccc2Cl)n3-c2ccc(Cl)cc2)CC1

>  <Measured Parameter>
Population Mitotic Cells (%)

>  <Measurement Units>
%

>  <Readout Number>
38

$$$$
>  <Molecule>
C[C@H](NC(=O)c1c(C(F)F)nn(C)c1Oc1cccc(C(F)(F)F)c1)c1ccc(C(=O)O)cc1

>  <Measured Parameter>
Population Mitotic Cells (%)

>  <Measurement Units>
%

>  <Readout Number>
40

$$$$
>  <Molecule>
CC(=O)NCCc1c(Cc2ccccc2)[nH]c2ccccc12

>  <Measured Parameter>
Population Mitotic Cells (%)

>  <Measurement Units>
%

>  <Readout Number>
45

$$$$
>  <Molecule>
CC(C)(C)c1ccc(S(=O)(=O)Nc2ccc(Cl)cc2C(=O)c2cc[n+]([O-])cc2)cc1

>  <Measured Parameter>
Population Mitotic Cells (%)

>  <Measurement Units>
%

>  <Readout Number>
53

$$$$
>  <Molecule>
CCCC(CCC)C(=O)O

>  <Measured Parameter>
Population Mitotic Cells (%)

>  <Measurement Units>
%

>  <Readout Number>
39

$$$$
